MEASURED_METRIC: boiling point (°C)
Your answer should be a plain number; it is taken to be in °C.

Known results for molecules:
Request: So what's the measured boiling point for this one? CCCC(CCC)CCC
Response: 158

Request: Quick one: CCC(C)C(C)=O (centres undefined)
Response: 118

Request: Quick one: CC(C)(C)c1ccccc1
Response: 169

Request: Quick one: C=CCO
Response: 97

Request: Quick one: C=CCOC(=O)C(=O)OCC=C
Response: 217

Request: Quick one: CCCCOCC
Response: 92.3

Attention now shifts to the item below.
Request: So what's the measured boiling point for this one? CCCCCCOCCO
Response: 208
